Give measured pEC50 for each item. Keep answers brief.
test system: human OPN promoter (pOPN1-luc) in A549/OPNluc cells; experiment: Luciferase assay: luciferase expression under control of OPN promoter; format: cell-based; details: Homo sapiens, A549, A549/OPNluc cells, 48±4 hours; read-out: EC50 (concentration for 50% inhibition of luciferase expression)
A value of pEC50 is the negative decimal logarithm of a concentration given in moles per litre.

## Input Any idea what its pEC50 is? The compound is O=C(Nc1cccc(Oc2ccc(Cl)cc2)c1)C1CCN(C(=O)c2ccc(O)cc2)C1 (stereo not shown) [Compound 32]
## Output 5.10

## Input Also check O=C(CCNC(=O)c1ccncc1)Nc1cccc(Oc2ccc(Cl)cc2)c1 [Compound 37]
## Output 4.81

## Input Also, COc1ccc(Oc2cccc(NC(=O)CCCNC(=O)c3ccc(O)cc3)c2)cc1 [Compound 27] please.
## Output 4.70

## Input Now consider COc1ccc(Oc2cccc(C(=O)CCNC(=O)c3ccc(O)cc3)c2N)cc1 [Compound 6] .
## Output 5.05

====

test system: human OPN promoter (pOPN1-luc) in A549/OPNluc cells; test: Luciferase assay: luciferase expression under control of OPN promoter; assay type: cell-based; conditions: Homo sapiens, A549, A549/OPNluc cells, 48±4 hours; read-out: EC50 (concentration for 50% inhibition of luciferase expression)
quantityName: EC50 (µM)
State just the number; it will be interpreted in µM.

## Input What value of EC50 has been reported for the following compound? `COc1cccc(C(=O)NCCC(=O)c2cccc(Oc3ccc(O)cc3)c2N)c1`
## Output 35.6

## Input Another compound to look at: `COc1ccc(Oc2ccc(NC(=O)CCNC(=O)c3ccc(O)cc3)cc2)cc1`
## Output 7

## Input Similarly, `Cc1ccc(Oc2cccc(C(=O)CCNC(=O)c3ccc(O)cc3)c2N)cc1` ?
## Output 5.6

## Input Can you handle O=C(Nc1cccc(Oc2ccc(Cl)cc2)c1)C1CCCN1C(=O)c1ccc(O)cc1 (centres unmarked) next?
## Output 24.9

## Input # iterate: `Nc1ccc(C(=O)NCCC(=O)c2cccc(Oc3ccc(Cl)cc3)c2N)cc1`
## Output 6.8

## Input Ok, now `CC(=O)Nc1ccc(C(=O)NCCC(=O)c2cccc(Oc3ccc(Cl)cc3)c2N)cc1`
## Output 16.3

## Input Also O=C(Nc1cccc(Oc2ccc(Cl)cc2)c1)C1CCCN(C(=O)c2ccc(O)cc2)C1 (centres unmarked) ?
## Output 8.5

====

tested on: human OPN promoter (pOPN1-luc) in A549/OPNluc cells; assay: Luciferase assay: luciferase expression under control of OPN promoter; format: cell-based; settings: Homo sapiens, A549, A549/OPNluc cells, 48±4 hours; read-out: EC50 (concentration for 50% inhibition of luciferase expression)
quantityName: pEC50
# reply with the number alone; pEC50 is -log10 of concentration in mol/L

## Input Value lookup for pEC50; key = `O=C(CCC(=O)Nc1cccc(Oc2ccc(Cl)cc2)c1)Nc1ccc(O)cc1`
## Output 4.15

## Input Repeat for the following compound: `Nc1c(Oc2ccc(O)cc2)cccc1C(=O)CCNC(=O)C1CCOCC1`
## Output 3.78

## Input Now this one: `O=C(CCNC(=O)c1ccc(O)cc1)Nc1cccc(Oc2ccc(Cl)cc2)c1`
## Output 5.12

## Input Now consider `Nc1c(Oc2ccc(O)cc2)cccc1C(=O)CCNC(=O)C1CCCCC1` .
## Output 4.50

## Input // next record `COc1ccc(Oc2ccccc2NC(=O)CNC(=O)c2ccc(O)cc2)cc1`
## Output 4.38

## Input Next compound up: `COc1ccc(Oc2cccc(C(=O)NCCNC(=O)c3ccc(O)cc3)c2)cc1`
## Output 4.79

## Input Please give the result for `COc1ccc(Oc2cccc(NC(=O)CCNC(=O)c3ccc(O)cc3)c2)cc1` too.
## Output 4.69

====

test system: human OPN promoter (pOPN1-luc) in A549/OPNluc cells; experiment: Luciferase assay: luciferase expression under control of OPN promoter; type: cell-based; conditions: Homo sapiens, A549, A549/OPNluc cells, 48±4 hours; read-out: EC50 (concentration for 50% inhibition of luciferase expression)
pEC50: −log10 of the molar value.
I would appreciate it if you labelled entries true (1) when pEC50 is 5 or higher, otherwise false (0).

## Input Kindly determine if pEC50 recorded for `O=C(CCNC(=O)c1ccsc1)Nc1cccc(Oc2ccc(Cl)cc2)c1` is above or exactly 5.
## Output false (0)

## Input And `COc1ccc(Oc2ccccc2NC(=O)CCNC(=O)c2ccc(O)cc2)cc1` ?
## Output false (0)

## Input Would you kindly repeat that for `O=C(CCNC(=O)c1cccs1)Nc1cccc(Oc2ccc(Cl)cc2)c1` ?
## Output false (0)

## Input Do the same for `Nc1c(Oc2ccc(O)cc2)cccc1C(=O)CCNC(=O)c1ccc(O)cc1` please
## Output false (0)

## Input Check `Nc1c(Oc2ccc(C(F)(F)F)cc2)cccc1C(=O)CCNC(=O)c1ccc(O)cc1` too.
## Output true (1)

## Input Moving on to `Nc1c(Oc2ccc(O)cc2)cccc1C(=O)CCNC(=O)c1ccc(F)cc1`
## Output false (0)

## Input And what about the molecule `COc1ccc(Oc2cccc(C(=O)CCNC(=O)c3ccc(OC)cc3)c2N)cc1` ?
## Output false (0)

## Input Follow-up item: `Nc1c(Oc2ccc(Cl)cc2)cccc1C(=O)CCNC(=O)c1ccc(O)cc1`
## Output true (1)

## Input And for `O=C(NCCC(=O)c1cccc(O)c1O)c1ccc(Oc2ccc(O)cc2)cc1` ?
## Output false (0)

## Input Try this molecule next: `COc1ccc(C(=O)NCCC(=O)c2cccc(Oc3ccc(O)cc3)c2N)cc1`
## Output false (0)

## Input Do the same for `COc1cccc(C(=O)CCNC(=O)c2ccc(O)cc2)c1N` please
## Output false (0)

## Input Check `O=C(CCNC(=O)c1ccc(O)cc1)Nc1cccc(Oc2ccc(Cl)c(Cl)c2)c1` too.
## Output true (1)
